assay: small molecules boosting NK-mediated OVCAR3 lysis – imaging, primary NK cells, calcein-AM imaging, primary screen (AID 1508625); details: OVCAR3 lysis by primary NK cells, at 5 µM;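 note: compound given to NK cells 16 h before adding targets at 1.5 to 1 ratio; reference of the scale not given here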
Readout kind: corrected activity, negative = more killing (%)
A number alone suffices; assume %.

[in] Please supply the value of reported corrected activity, negative = more killing for the item O=C(O)CN1C(=O)c2cccc3c(Br)ccc1c23
[out] -4.58

[in] For CCOc1cc(C(=S)N2CCCCC2)ccc1OC(=O)c1ccc(OC)cc1 , write its corrected activity, negative = more killing.
[out] -5.85

[in] State its corrected activity, negative = more killing for this molecule: O=C(CCCn1c(=S)[nH]c2cc3c(cc2c1=O)OCO3)NCCCN1CCOCC1
[out] -7.74

[in] Quickly give me recorded corrected activity, negative = more killing for Cc1ccc(C(=O)NC(=Cc2cccnc2)C(=O)Nc2ccc(I)cc2)cc1
[out] -0.444

[in] Consider the molecule COc1cc(OC)c(C=Nc2ccc(OC(F)(F)F)cc2)cc1Br and give its recorded corrected activity, negative = more killing.
[out] -1.81

[in] State its corrected activity, negative = more killing: CC(C)NCCCCOc1ccccc1-c1ccccc1
[out] 1.68

[in] Please indicate corrected activity, negative = more killing recorded for CCOC(=O)C1=C(N)OC2=C(C(=O)CC(C)(C)C2)C1c1ccc(O)cc1 (stereo unspecified)
[out] -4.12

[in] For the molecule CCCCC1CC(CN2C(=O)NC(C)(C)C2=O)OC1=O (stereo unspecified) , report corrected activity, negative = more killing.
[out] -2.13

[in] Input CCCCNCCCOc1cccc(Br)c1 , output reported corrected activity, negative = more killing.
[out] -0.452

[in] Please supply the value of reported corrected activity, negative = more killing for the item Cc1cc(C)cc(-n2cnc3cc(C(=O)NC4CCCCC4C)ccc32)c1 (stereo unspecified)
[out] -2.86

[in] Name the recorded corrected activity, negative = more killing of the molecule listed here: COC(=O)c1conc1-c1ccccc1OC
[out] -3.1

[in] Provide corrected activity, negative = more killing value for the following molecule: CC1CCN(CCCCCOc2ccccc2Br)CC1
[out] -0.201

[in] Return corrected activity, negative = more killing for the following molecule: CN(C(=O)Cn1ncc2c(=O)oc3ccccc3c21)c1ccc(Br)cc1
[out] -6.99

[in] Give the reported value of corrected activity, negative = more killing for this record: C=CCn1c2ccccc2c2nnc(SCc3[nH]c(C(=O)OCC)c(C)c3C(C)=O)nc21
[out] -1.4

[in] Provide measured corrected activity, negative = more killing value, entry: O=C(Nc1ccc2c(c1)OCCO2)c1cc2cc3ccc(Cl)cc3nc2o1
[out] -3.48

[in] For the molecule CC1(C)CC(=O)C(CCC(=O)c2ccccc2)C(C)(C)N1 (stereo unspecified) , report corrected activity, negative = more killing.
[out] -2.46

[in] Hello, please tell me recorded corrected activity, negative = more killing for this one: C(=Cc1ccccc1)CN1CCN(C2c3ccccc3-c3ccccc32)CC1
[out] -0.148

[in] For the molecule CC(=O)N1CCc2[nH]c3ccccc3c2C1 , report corrected activity, negative = more killing.
[out] -1.79

[in] For Cc1noc(C)c1S(=O)(=O)Nc1ccc(C(=O)Nc2cccc(Cl)c2)cc1 , write its corrected activity, negative = more killing.
[out] -7.43

[in] Look up and report measured corrected activity, negative = more killing for this entry: COc1cc(C=Nc2ccc(Oc3ccccc3)cc2)ccc1OC(C)=O
[out] -3.39

[in] Give the value of corrected activity, negative = more killing reported for the following: O=C(Nc1cccc2ccccc12)ON=Cc1ccc(F)cc1
[out] -4.41

[in] Input N=C1NC(=O)C(=Cc2ccc(F)cc2)S1 , output reported corrected activity, negative = more killing.
[out] -5.91

[in] Complete the entry with corrected activity, negative = more killing for COc1ccccc1CNC(=O)C1CCN(S(=O)(=O)c2cccc3nonc23)CC1
[out] -5.24

[in] Identify measured corrected activity, negative = more killing corresponding to COc1ccc(-c2nocc2C(N)=O)cc1OC
[out] -3.72

[in] Note corrected activity, negative = more killing for the molecule shown: O=C(Nc1ccccc1Cl)c1cccc([N+](=O)[O-])c1
[out] -1.44

[in] # return recorded corrected activity, negative = more killing for entry CS(=O)(=O)N(CC(=O)N1CCOCC1)c1ccc2c(c1)OCCO2
[out] -1.8

[in] Let me know recorded corrected activity, negative = more killing for COc1ccc(OC)c(-n2c(=S)[nH]c3cc(C(=O)Nc4ccc5c(c4)CCC5)ccc3c2=O)c1 , thanks.
[out] -3.65

[in] For COc1ccc(NC(=O)NCc2ccncc2)cc1 , write its corrected activity, negative = more killing.
[out] -2.54

[in] Tell us which corrected activity, negative = more killing value is on record for CCOc1ccc(C2C(=C(O)c3ccccc3)C(=O)C(=O)N2CCO)cc1 (stereo unspecified)
[out] -2.61

[in] Please indicate corrected activity, negative = more killing recorded for Cc1ccc(C=C(NC(=O)c2ccc(C)cc2)c2nc3ccccc3[nH]2)cc1
[out] -1.41

[in] Output corrected activity, negative = more killing of Cc1cc(NC(=O)CSc2nc3ccc(Br)cc3c3nc4ccccc4n23)no1
[out] -5.14

[in] Return reported corrected activity, negative = more killing. Input molecule: O=CN1CCN(c2nc3ccccc3nc2C(F)(F)F)CC1
[out] -2.49

[in] Assign corrected activity, negative = more killing to the following record: Cc1ccc(C)c(Cn2cccc2C#N)c1
[out] -4.01

[in] Identify measured corrected activity, negative = more killing associated with Cc1ccc(N2CC(C(=O)Nc3cccc(C)n3)CC2=O)cc1 (stereo unspecified)
[out] -3

[in] Look up corrected activity, negative = more killing of O=c1c2cc3c(cc2nc(SCc2cccc(F)c2)n1Cc1ccco1)OCO3 and report it.
[out] -3.76

[in] Give a short answer stating reported corrected activity, negative = more killing for C#CCN1C(=O)C(O)(CC(=O)c2cccc3ccccc23)c2ccccc21 (stereo unspecified) .
[out] -5.41

[in] Tell me its corrected activity, negative = more killing given Brc1ccc(SCCc2nc3ccccc3o2)cc1 as the entry.
[out] -4.19

[in] Please report corrected activity, negative = more killing for the following molecule: COc1cc2c(cc1NC(=O)Nc1cc3oc4ccccc4c3cc1OC)oc1ccccc12
[out] -6.21

[in] Return the recorded corrected activity, negative = more killing value; entry: Cc1nnc(NC(=O)CSc2nc3c(c(=O)n2-c2ccccc2)SCC3)s1
[out] -0.367

[in] Name the recorded corrected activity, negative = more killing of the item CCOc1ccc(S(=O)(=O)Nc2ccc(OC(F)(F)F)cc2)c2cccnc12 in your answer.
[out] -1.89

[in] Supply corrected activity, negative = more killing value. Item: CCOc1ccc(NC(=O)Cn2c(=O)n(CCc3ccccc3)c(=O)c3c4c(sc32)CCCC4)cc1
[out] -8.33

[in] Please indicate corrected activity, negative = more killing recorded for c1ccc(OCCCc2nc(-c3ccccn3)no2)cc1
[out] -2.46

[in] Respond only with corrected activity, negative = more killing recorded for O=C(Nc1ccc(Cc2ccncc2)cc1)C1CCC(N2C(=O)C3CC=CCC3C2=O)CC1 (stereo unspecified)
[out] -4.96

[in] Supply measured corrected activity, negative = more killing of CCOc1ccc2nc(NC(=O)CCC(=O)OCC(F)(F)F)sc2c1 in your reply.
[out] -3.74

[in] Tell me corrected activity, negative = more killing reported for CC(C)(C)NC(=O)CSc1nc2ccc(Cl)cc2o1
[out] -2.67

[in] For COc1ccccc1N1CCN(C(=O)NC2CCCCC2)CC1 , write its corrected activity, negative = more killing.
[out] -0.143
